Assign Binding affinity (RU) to each entry below.
system under test: acetylcholine receptor
procedure text: SPR, AchR immobilised on CM5 chip, peptide 10 uM
Output spec: scalar in RU, unitless text.

Per the record, KREEWR [6mer-1-1015] has Binding affinity (RU) of 26

Per the record, RRTEFK [6mer-1-987] has Binding affinity (RU) of 34

Per the record, KTEIRK [6mer-2-683] has Binding affinity (RU) of 33

Per the record, RPPVRK [6mer-2-637] has Binding affinity (RU) of 32
